Data origin, for the record: patent US20230416329A1

# target: bovine trypsin (bovine, UniProt P00760 24-246)
# Sequence (P00760 24-246): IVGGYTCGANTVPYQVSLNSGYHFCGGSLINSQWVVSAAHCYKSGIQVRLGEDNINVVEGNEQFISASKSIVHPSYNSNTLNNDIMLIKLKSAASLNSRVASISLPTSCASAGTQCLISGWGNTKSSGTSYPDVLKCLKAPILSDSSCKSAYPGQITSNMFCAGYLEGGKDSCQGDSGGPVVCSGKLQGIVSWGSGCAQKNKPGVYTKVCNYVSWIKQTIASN
# procedure.text: trypsin (50 nM) BApNA hydrolysis, OD405; peptide at 0.00098 µM
Bridge positions count the residues as written; N and C are the ends. Ends that are not written are not given here.
Catalogue of Residual trypsin activity (%) values
endpoint.label: Residual trypsin activity (%)

- binder: "CARATKSIPPICF (disulfide 1-12 (inferred), synthetic) [BT67]"
  experimental.value: 104
- binder: "CGRATKSIPPICF (disulfide 1-12 (inferred), synthetic) [BT9]"
  experimental.value: 100
- binder: "CGTATKSIPPICF (disulfide 1-12 (inferred), synthetic) [BT25]"
  experimental.value: 101
- binder: "CPRATKSIPPICF (disulfide 1-12 (inferred), synthetic) [BT66]"
  experimental.value: 105
